Source: patent US7749996B2

assay.system: activated MMP-8 enzyme (Homo sapiens)
Sequence (P22894 101-467): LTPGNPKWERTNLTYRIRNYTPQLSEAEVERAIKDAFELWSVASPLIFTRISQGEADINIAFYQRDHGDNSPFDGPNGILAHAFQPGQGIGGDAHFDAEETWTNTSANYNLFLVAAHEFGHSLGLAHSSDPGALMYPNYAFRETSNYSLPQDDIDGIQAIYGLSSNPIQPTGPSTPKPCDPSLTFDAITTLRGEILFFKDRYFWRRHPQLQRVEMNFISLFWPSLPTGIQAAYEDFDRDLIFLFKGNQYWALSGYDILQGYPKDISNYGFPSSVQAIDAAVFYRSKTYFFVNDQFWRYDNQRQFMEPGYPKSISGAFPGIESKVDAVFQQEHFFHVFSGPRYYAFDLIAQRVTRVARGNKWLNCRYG
experimental.details: Assay for determining MMP-8 inhibition (fluorescent substrate)
particulars: Table 2, activity group
The entries below come with measured IC50 values attached.

| compound | IC50 |
| --- | --- |
| Nc1c(NCc2cccc(CNC(=O)c3nc4sc5c(c4c(=O)[nH]3)CCC5)c2)c(=O)c1=O | < 250 nM |
| O=C1COc2ccc(CNC(=O)c3nc4cc5ccccc5cc4c(=O)[nH]3)cc2N1 | 250 to 20000 nM |
| COC(=O)c1ccc(CNC(=O)C2CCc3sc4nc(C(=O)NCc5ccc6c(c5)NC(=O)CO6)[nH]c(=O)c4c32)cc1 (centres unmarked) | < 250 nM |
| O=C(NCc1cccc(N2CCOCC2)c1)c1nc2sc3c(c2c(=O)[nH]1)CCC3 | 250 to 20000 nM |
| CN(C)C(=O)C1CCc2sc3nc(C(=O)NCc4ccc5c(c4)NC(=O)CO5)[nH]c(=O)c3c21 (centres unmarked) | 250 to 20000 nM |
| O=C(NCc1ccc2c(c1)OCCO2)c1nc2sc3c(c2c(=O)[nH]1)CCC3 | 250 to 20000 nM |
| O=C(NCc1ccc(F)c(Cl)c1)c1nc2sc3c(c2c(=O)[nH]1)CCC3 | 250 to 20000 nM |
| O=C1COc2ccc(CNC(=O)c3nc4sc5c(c4c(=O)[nH]3)CCCS(=O)(=O)C5)cc2N1 | < 250 nM |
| CC(=O)N1Cc2sc3nc(C(=O)NCc4ccc5c(c4)NC(=O)CO5)[nH]c(=O)c3c2C1 | 250 to 20000 nM |
| CC(=O)N1CCc2c(sc3nc(C(=O)NCc4ccc5c(c4)CN(c4c(N)c(=O)c4=O)CC5)[nH]c(=O)c23)C1 | < 250 nM |
| O=C1COc2ccc(CNC(=O)c3nc4sc5c(c4c(=O)[nH]3)CN(C(=O)CC(F)(F)F)C5)cc2N1 | 250 to 20000 nM |
| O=C1COc2ccc(CNC(=O)c3nc4sc5c(c4c(=O)[nH]3)CCCSC5)cc2N1 | < 250 nM |
| O=C1COc2ccc(CNC(=O)c3nc4sc5c(c4c(=O)[nH]3)CCC5)cc2N1 | < 250 nM |
| CS(=O)(=O)N1CCc2ccc(CNC(=O)c3nc4sc5c(c4c(=O)[nH]3)CCC5)cc2C1 | 250 to 20000 nM |
| O=C(NCc1cccc(F)c1)c1nc2sc3c(c2c(=O)[nH]1)CCC3 | 250 to 20000 nM |
| Nc1c(NCc2cc(CNC(=O)c3nc4sc5c(c4c(=O)[nH]3)CCC5)ccc2F)c(=O)c1=O | 250 to 20000 nM |
| O=C1COc2ccc(CNC(=O)c3nc4sc5c(c4c(=O)[nH]3)CCNCC5)cc2N1 | 250 to 20000 nM |
| O=C(O)CNC(=O)C1CCc2sc3nc(C(=O)NCc4ccc5c(c4)NC(=O)CO5)[nH]c(=O)c3c21 (centres unmarked) | < 250 nM |
| Nc1c(N2CCc3ccc(CNC(=O)c4nc5sc6c(c5c(=O)[nH]4)CCC6)cc3C2)c(=O)c1=O | < 250 nM |
| NC(=O)CNC(=O)C1CCc2sc3nc(C(=O)NCc4ccc5c(c4)NC(=O)CO5)[nH]c(=O)c3c21 (centres unmarked) | < 250 nM |
| CS(=O)(=O)c1ccc(CNC(=O)C2CCc3sc4nc(C(=O)NCc5ccc6c(c5)NC(=O)CO6)[nH]c(=O)c4c32)cc1 (centres unmarked) | < 250 nM |
| CCNC(=O)CC1CCCc2sc3nc(C(=O)NCc4ccc5c(c4)NC(=O)CO5)[nH]c(=O)c3c21 (centres unmarked) | < 250 nM |
| CCOC(=O)C1CCc2sc3nc(C(=O)NCc4ccc5c(c4)CN(c4c(N)c(=O)c4=O)CC5)[nH]c(=O)c3c2C1 (centres unmarked) | < 250 nM |
| Nc1c(N2CCc3ccc(CNC(=O)c4nc5sc6c(c5c(=O)[nH]4)CCCCC6)cc3C2)c(=O)c1=O | < 250 nM |
| Cc1cccc(CNC(=O)c2nc3sc4c(c3c(=O)[nH]2)CCC4)c1 | 250 to 20000 nM |
| NC(=O)C1CCCCc2sc3nc(C(=O)NCc4ccc5c(c4)NC(=O)CO5)[nH]c(=O)c3c21 (centres unmarked) | < 250 nM |
| O=C1COc2ccc(CNC(=O)C3NC(=O)c4c(sc5c4CCCN(CC4CCCCO4)C5=O)N3)cc2N1 (centres unmarked) | < 250 nM |
| Nc1c(N2CCc3ccc(CNC(=O)c4nc5sc6c(c5c(=O)[nH]4)CCS(=O)(=O)C6)cc3C2)c(=O)c1=O | < 250 nM |
| Cc1cc(CNC(=O)c2nc3sc4c(c3c(=O)[nH]2)CCC4)ccc1F | < 250 nM |
| CC(C)(C)OC(=O)N1CCc2sc3nc(C(=O)NCc4ccc5c(c4)NC(=O)CO5)[nH]c(=O)c3c2CC1 | < 250 nM |
| COc1cccc(CNC(=O)c2nc3sc4c(c3c(=O)[nH]2)CCC4)c1 | 250 to 20000 nM |
| O=C1COc2ccc(CNC(=O)c3nc4sc5c(c4c(=O)[nH]3)CCC[S+]([O-])C5)cc2N1 (centres unmarked) | < 250 nM |
